# System: Diet Induced Obese (DIO) C57BL/6 mice
# TEST_DESCRIPTION: 10 day DIO mouse model (body weight, food intake, hematology, blood chemistry)
# Assay type: in vivo
# EXPERIMENTAL_SETUP: 240 h; DIO mouse, 0.3 mpk sc, once a day for 10 days; read-out: DIO Mouse 10-day weight loss vs vehicle
# Excerpt: The objective of this study design was to investigate the efficacy of disclosed compounds in a 10 day DIO mouse model. Effects on body weight, food intake, hematology and blood chemistry were the primary readouts of this study design. […] On Day −4 or −3, mice were randomized into study groups based on body weight and body weights were continued to be recorded daily for the duration of the study. […]
PARAMETER_MEASURED: inhibition in vivo at 0.3 mg/kg
Please don't drop the unit; write it after the number.

For orientation, consider the following solved cases.
Exercise: Give its inhibition in vivo at 0.3 mg/kg value. Item: "CCN(CC)CCC1(O)CN(C(=O)O[C@@H]2CC[C@]3(CO3)[C@@H]([C@@]3(C)O[C@@H]3CC=C(C)C)[C@@H]2OC)C1"
Key: 4.1%

Exercise: Give its inhibition in vivo at 0.3 mg/kg value. Item: "CO[C@@H]1[C@H](OC(=O)N2CC(OC(=O)N3CCN(CC(F)(F)F)CC3)C2)CC[C@]2(CO2)[C@H]1[C@@]1(C)O[C@@H]1CC=C(C)C"
Key: 16.9%

Exercise: Give its inhibition in vivo at 0.3 mg/kg value. Item: "CO[C@@H]1[C@H](OC(=O)N2CC(CCN3CC[C@@H](F)C3)C2)CC[C@]2(CO2)[C@H]1[C@@]1(C)O[C@@H]1CC=C(C)C"
Key: 13.3%

Exercise: Give its inhibition in vivo at 0.3 mg/kg value. Item: "CCN(CC)CCNC(=O)OC1CN(C(=O)O[C@@H]2CC[C@]3(CO3)[C@@H]([C@@]3(C)O[C@@H]3CC=C(C)C)[C@@H]2OC)C1"
Key: 7.4%

Exercise: Give its inhibition in vivo at 0.3 mg/kg value. Item: "CO[C@@H]1[C@H](OC(=O)N2CC(OC(=O)NC(C)C)C2)CC[C@]2(CO2)[C@H]1[C@@]1(C)O[C@@H]1CC=C(C)C"
Key: 15.4%

Moving on to another compound below.
Exercise: Give its inhibition in vivo at 0.3 mg/kg value. Item: "CO[C@@H]1[C@H](OC(=O)N2CC(CCN3CCC(C)(O)CC3)C2)CC[C@]2(CO2)[C@H]1[C@@]1(C)O[C@@H]1CC=C(C)C"
Key: 4.9%
